The measurements presented in this section are drawn from ChEMBL document CHEMBL3868615.

Biological target: UniProt P08912
Sequence (P08912 whole entry): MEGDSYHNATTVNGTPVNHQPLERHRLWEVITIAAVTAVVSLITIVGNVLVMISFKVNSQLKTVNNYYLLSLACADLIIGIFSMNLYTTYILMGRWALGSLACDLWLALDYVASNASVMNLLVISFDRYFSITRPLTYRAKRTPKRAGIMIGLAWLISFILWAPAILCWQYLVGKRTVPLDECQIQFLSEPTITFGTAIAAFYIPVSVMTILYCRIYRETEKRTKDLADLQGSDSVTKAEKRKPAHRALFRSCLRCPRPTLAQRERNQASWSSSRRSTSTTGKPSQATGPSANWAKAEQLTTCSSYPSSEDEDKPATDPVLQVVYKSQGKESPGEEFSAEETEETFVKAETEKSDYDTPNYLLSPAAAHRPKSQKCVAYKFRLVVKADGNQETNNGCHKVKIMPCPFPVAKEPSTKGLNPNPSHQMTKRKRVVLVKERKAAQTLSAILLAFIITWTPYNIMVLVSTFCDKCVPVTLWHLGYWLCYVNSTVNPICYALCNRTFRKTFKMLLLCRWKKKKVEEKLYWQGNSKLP
EXPERIMENTAL_READOUT: Ki (µM)
The reply should be a number in µM, with the unit left off.

Q) Return Ki measured with UniProt P08912 given this molecule: CN1CC[C@H]2CC(=O)[C@H](Cc3ccccc3)[C@H]3CCC[C@@H]1[C@H]23
A) 3.49

###

Molecular target: D(4) dopamine receptor (Homo sapiens, UniProt P21917)
Sequence (P21917 whole entry): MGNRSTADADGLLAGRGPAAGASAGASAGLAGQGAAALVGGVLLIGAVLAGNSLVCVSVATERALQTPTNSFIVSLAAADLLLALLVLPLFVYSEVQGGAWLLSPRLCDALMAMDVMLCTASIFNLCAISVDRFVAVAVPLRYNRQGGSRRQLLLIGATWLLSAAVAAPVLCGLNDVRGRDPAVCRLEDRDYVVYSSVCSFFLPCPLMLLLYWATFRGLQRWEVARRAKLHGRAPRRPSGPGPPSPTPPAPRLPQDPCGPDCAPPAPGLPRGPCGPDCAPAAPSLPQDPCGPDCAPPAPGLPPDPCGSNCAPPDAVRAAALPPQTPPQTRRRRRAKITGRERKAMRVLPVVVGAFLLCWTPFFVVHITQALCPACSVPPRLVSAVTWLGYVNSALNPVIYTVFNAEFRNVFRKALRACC
EXPERIMENTAL_READOUT: Ki

Q) Item under review: CN1CC[C@H]2CC(=O)[C@H](Cc3ccccc3)[C@H]3CCC[C@@H]1[C@H]23 . Reported Ki?
A) > 10 µM

Q) Another molecule: CCCN1CC[C@H]2c3cc4ccc(C(F)(F)F)cc4nc3[C@H](CC)[C@H]3CCC[C@@H]1[C@@H]32
A) > 10 µM

###

Molecular target: Kappa-type opioid receptor (Homo sapiens, UniProt P41145)
Sequence (P41145 whole entry): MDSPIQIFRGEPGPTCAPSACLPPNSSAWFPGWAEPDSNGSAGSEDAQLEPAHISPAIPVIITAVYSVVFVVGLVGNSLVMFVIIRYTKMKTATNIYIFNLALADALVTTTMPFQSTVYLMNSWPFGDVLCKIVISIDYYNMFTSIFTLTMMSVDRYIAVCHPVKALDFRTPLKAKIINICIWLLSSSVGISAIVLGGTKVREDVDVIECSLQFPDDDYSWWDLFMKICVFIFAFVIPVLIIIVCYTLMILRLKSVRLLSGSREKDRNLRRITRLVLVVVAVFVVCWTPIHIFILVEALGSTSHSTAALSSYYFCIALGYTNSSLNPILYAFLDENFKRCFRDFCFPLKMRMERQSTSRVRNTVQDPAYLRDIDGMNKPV
Decide using Ki alone. Strictly below 0.4 µM: satisfied. Equal to or above 0.4 µM: not satisfied.

Q) Dear colleague, could you confirm whether Ki of CCCN1CC[C@@H]2CC(=O)C[C@H]3CCC[C@H]1[C@H]32 falls below 0.4 µM? Thanks.
A) not satisfied

Q) Another compound: CC[C@H]1C(=O)C[C@@H]2CCN(CCOC)[C@@H]3CCC[C@H]1[C@@H]23
A) not satisfied

Q) Another compound: CC[C@H]1C(=O)C[C@@H]2CCN(Cc3cccs3)[C@@H]3CCC[C@H]1[C@@H]23
A) not satisfied

Q) Another compound: CC[C@H]1C(=O)C[C@@H]2CCN(CC3CCCCC3)[C@@H]3CCC[C@H]1[C@@H]23
A) satisfied

Q) Another compound: CC[C@H]1C(=O)C[C@@H]2CCN(C(=O)NCc3ccc(Cl)cc3)[C@@H]3CCC[C@H]1[C@@H]23
A) not satisfied

Q) Another compound: O=C1C[C@@H]2CCN(Cc3cccs3)[C@@H]3CCC[C@@H]([C@@H]23)[C@H]1Cc1ccccc1
A) not satisfied

Q) Another compound: CCCN1CC[C@H]2c3cc4ccc(C(F)(F)F)cc4nc3[C@H](CC)[C@H]3CCC[C@@H]1[C@@H]32
A) not satisfied

Q) Another compound: CC[C@H]1C(=O)C[C@@H]2CCN(Cc3nccs3)[C@@H]3CCC[C@H]1[C@@H]23
A) not satisfied

Q) Another compound: COc1ccc(C[C@H]2C(=O)C[C@@H]3CCN(CCC(C)C)[C@@H]4CCC[C@H]2[C@@H]34)cc1
A) not satisfied

Q) Another compound: CC[C@H]1C(=O)C[C@@H]2CCN(C)[C@@H]3CCC[C@H]1[C@@H]23
A) not satisfied

Q) Another compound: CCCN1CC[C@H]2c3cc4cc(Cl)ccc4nc3[C@H](CC)[C@H]3CCC[C@@H]1[C@@H]32
A) satisfied

Q) Another compound: CC[C@H]1C(=O)C[C@@H]2CCN(CCC(C)C)[C@@H]3CCC[C@H]1[C@@H]23
A) not satisfied

Q) Another compound: COCCN1CC[C@H]2CC(=O)[C@H](Cc3ccccc3)[C@H]3CCC[C@@H]1[C@H]23
A) not satisfied
